test system: Fibroblast; assay: Multiplex assay against human fibroblast; format: toxicity, cell-based; conditions: 24 h, 10 µM, compound concentration 10 uM, replicate 2
Provide the recorded Population Pyknosed Nuclei (%) for the entries that follow.
Respond with the bare value in %.

Task item: Reported Population Pyknosed Nuclei (%), compound CC(/C=C1\SC(=S)N(CCCC(=O)Nc2ccc(C(=O)O)c(O)c2)C1=O)=C\c1ccccc1 : ____
Reply: 26

Task item: And Cc1cccc(NC(=O)CN2CCC(c3ccccn3)CC2)c1.Cl.Cl ?
Reply: 20

Task item: Further, for Cc1sc2c(c1C)C(c1ccc(Cl)cc1)=N[C@@H](CC(=O)NCCCCCCCCNC(=O)COc1cccc3c1C(=O)N(C1CCC(=O)NC1=O)C3=O)c1nnc(C)n1-2 (some centres undefined) ?
Reply: 42

Task item: Same lookup for CN1CCN(c2cc(-c3ccccc3)nc(N)n2)CC1 , please.
Reply: 23

Task item: Now the same for COc1ccccc1N1CCN(C[C@@H](C(=O)NC(C)(C)C)c2ccccc2)CC1.Cl.Cl
Reply: 19

Task item: Consider next the compound Cl.N=C(N)NC(=O)Cc1c(Cl)cccc1Cl [GUANFACINE HYDROCHLORIDE] in the same way.
Reply: 18

Task item: Also CC(C)(C)c1cc(NC(=O)Nc2ccc(-c3cn4c(n3)sc3cc(OCCN5CCOCC5)ccc34)cc2)no1 ?
Reply: 13

Task item: What would you report for CCCCCC(O)/C=C/[C@H]1C(=O)CC(O)C1C/C=C\CCCC(=O)O (some centres undefined) ?
Reply: 21

Task item: Proceed to O=C(NCCN1CCC(n2c(=O)[nH]c3cc(Cl)ccc32)CC1)c1ccc(F)cc1 [HALOPEMIDE]
Reply: 35
